tested on: OVCAR-5 ovarian; assay: NCI-60 one-dose screen, 48 h; conditions: 10 µM
This is part of a sample that, as a whole, favours compounds with a hit. Of some 83,000 tested, about 20% had one in any assay. The source made the active and inactive calls. Rule for the calls: active = growth percent below 10; inactive = the rest.
Labels: active, inactive

{"MOLECULE": "COc1cc(-c2nc(-c3nnc(-c4ccccc4Cl)o3)c3ccccn23)cc(OC)c1OC", "TEST SYSTEM": "OVCAR-5 ovarian", "ASSIGNED CATEGORY": "inactive"}
{"MOLECULE": "CC12O[C@H](C[C@@H](OC(=O)c3ccccc3)[C@H]1O)n1c3ccccc3c3c4c(c5c6ccccc6n2c5c31)C(=O)NC4=O", "TEST SYSTEM": "OVCAR-5 ovarian", "ASSIGNED CATEGORY": "inactive"}
{"MOLECULE": "COc1cc(-c2cc(-c3cc4c([nH]c5ccccc54)c(-c4cc(OC)c(OC)c(OC)c4)n3)cc(-c3ccccc3)n2)cc(OC)c1OC", "TEST SYSTEM": "OVCAR-5 ovarian", "ASSIGNED CATEGORY": "inactive"}
{"MOLECULE": "CCCCCC(=O)c1ccc(OCCCN2CCN(C(=O)OCC)CC2)cc1", "TEST SYSTEM": "OVCAR-5 ovarian", "ASSIGNED CATEGORY": "inactive"}
{"MOLECULE": "Nc1c(C(=O)Nc2cccc(Br)c2)sc2nc3c(cc12)C(O)CCC3 (stereo unspecified)", "TEST SYSTEM": "OVCAR-5 ovarian", "ASSIGNED CATEGORY": "inactive"}
{"MOLECULE": "COc1ccc(-c2nn(-c3cccc(NC(=O)c4ccc(N5CCOCC5)c(C(F)(F)F)c4)c3)cc2-c2ccncc2)cc1Cl", "TEST SYSTEM": "OVCAR-5 ovarian", "ASSIGNED CATEGORY": "inactive"}
{"MOLECULE": "COc1cc(NC(=O)CCSc2nc3ccc(Cl)cc3c(=O)n2Cc2ccccc2)cc(OC)c1OC", "TEST SYSTEM": "OVCAR-5 ovarian", "ASSIGNED CATEGORY": "inactive"}
{"MOLECULE": "CCCCC(CCCCCC(CCCC)NCc1ccc2c(c1)OCO2)NCc1ccc2c(c1)OCO2 (stereo unspecified)", "TEST SYSTEM": "OVCAR-5 ovarian", "ASSIGNED CATEGORY": "active"}
{"MOLECULE": "CCN(CCCCCCN1CC(=O)N(CCCCCCN(CC)Cc2ccccc2OC)CC1=O)Cc1ccccc1OC", "TEST SYSTEM": "OVCAR-5 ovarian", "ASSIGNED CATEGORY": "inactive"}
{"MOLECULE": "CCCCN(CCCC)CCCCCCCCC(O)c1cc2ccccc2c2ccccc12 (stereo unspecified)", "TEST SYSTEM": "OVCAR-5 ovarian", "ASSIGNED CATEGORY": "inactive"}
{"MOLECULE": "c1ccc(CO[C@H]2CO[C@H]3[C@@H]2OC[C@H]3OCc2ccccc2)cc1", "TEST SYSTEM": "OVCAR-5 ovarian", "ASSIGNED CATEGORY": "inactive"}
{"MOLECULE": "O=c1c2ccccc2nc(SCCN2CCCCC2)n1CCc1ccccc1", "TEST SYSTEM": "OVCAR-5 ovarian", "ASSIGNED CATEGORY": "inactive"}
{"MOLECULE": "Cc1cc(C)c(CCc2cc(C)c(C)cc2C)cc1C", "TEST SYSTEM": "OVCAR-5 ovarian", "ASSIGNED CATEGORY": "inactive"}
{"MOLECULE": "CCN1CCCC1CNC(=O)c1ncc(-c2ccc(C(F)(F)F)cc2)c(NC2CCCCCC2)n1 (stereo unspecified)", "TEST SYSTEM": "OVCAR-5 ovarian", "ASSIGNED CATEGORY": "inactive"}
{"MOLECULE": "CCn1cc(C(=O)O)c(=O)c2cnc(N3CCCC3)nc21", "TEST SYSTEM": "OVCAR-5 ovarian", "ASSIGNED CATEGORY": "inactive"}
{"MOLECULE": "C=C(Cl)[C@@](Cl)(CBr)CC[C@@H](Br)C(C)(C)Cl", "TEST SYSTEM": "OVCAR-5 ovarian", "ASSIGNED CATEGORY": "active"}
{"MOLECULE": "Cn1c(C(N)=O)cc2c1-c1nc(Nc3ccccc3)ncc1CCC2", "TEST SYSTEM": "OVCAR-5 ovarian", "ASSIGNED CATEGORY": "inactive"}
{"MOLECULE": "CCCCCCCCCCCCCC[n+]1ccc(C(N)=O)cc1", "TEST SYSTEM": "OVCAR-5 ovarian", "ASSIGNED CATEGORY": "active"}
{"MOLECULE": "Clc1ccc(-c2cn(-c3ccccc3)c(-c3ccccc3)n2)c(Cl)c1", "TEST SYSTEM": "OVCAR-5 ovarian", "ASSIGNED CATEGORY": "inactive"}
{"MOLECULE": "C#Cc1ccc(-n2c(/C=C/c3ccc(Cl)c(F)c3)nc3ncccc3c2=O)cc1", "TEST SYSTEM": "OVCAR-5 ovarian", "ASSIGNED CATEGORY": "inactive"}
{"MOLECULE": "CCN(CC)CCOc1nc2ccc(OC)cc2c2c1-c1ccc(OC)cc1C2=O", "TEST SYSTEM": "OVCAR-5 ovarian", "ASSIGNED CATEGORY": "inactive"}
{"MOLECULE": "CCOC(=O)C1(CC(C)C)CCOC1=O (stereo unspecified)", "TEST SYSTEM": "OVCAR-5 ovarian", "ASSIGNED CATEGORY": "inactive"}
{"MOLECULE": "CCCCCCN(CCCCCC)CC(O)c1ccc2c3c(cccc13)CC2 (stereo unspecified)", "TEST SYSTEM": "OVCAR-5 ovarian", "ASSIGNED CATEGORY": "inactive"}
{"MOLECULE": "COc1ccc2c(c1)-c1c(c3cc(OC)ccc3n(CCN(C)C)c1=O)C2=O", "TEST SYSTEM": "OVCAR-5 ovarian", "ASSIGNED CATEGORY": "inactive"}
{"MOLECULE": "COc1cc(Nc2ccnc(NCCNc3ccnc4cc(Cl)ccc34)n2)cc(OC)c1", "TEST SYSTEM": "OVCAR-5 ovarian", "ASSIGNED CATEGORY": "inactive"}
{"MOLECULE": "CCOC1(OCC)OC(c2ccccc2)=C(C#N)C(/C=C\\c2ccccc2)C1(OCC)OCC (stereo unspecified)", "TEST SYSTEM": "OVCAR-5 ovarian", "ASSIGNED CATEGORY": "inactive"}
{"MOLECULE": "CC(=O)O[C@]1(C)CC[C@H]2[C@H](CNCCc3ccc(Cl)cc3)C(=O)O[C@@H]2C2=C(C)C(=O)C[C@H]21", "TEST SYSTEM": "OVCAR-5 ovarian", "ASSIGNED CATEGORY": "inactive"}
{"MOLECULE": "O=[N+]([O-])c1ccc(N/N=C/c2cccc3ccccc23)nc1", "TEST SYSTEM": "OVCAR-5 ovarian", "ASSIGNED CATEGORY": "inactive"}
{"MOLECULE": "COc1ccc2c(c1)N(CCO)C1=C(C(=O)OC1)C2c1ccccc1 (stereo unspecified)", "TEST SYSTEM": "OVCAR-5 ovarian", "ASSIGNED CATEGORY": "inactive"}
{"MOLECULE": "Cc1cc(N(CCCNc2ccnc3cc(Cl)ccc23)Cc2ccc3c(c2)OCO3)nc(N2CCCCC2)n1", "TEST SYSTEM": "OVCAR-5 ovarian", "ASSIGNED CATEGORY": "active"}
{"MOLECULE": "O=C1N=NC2=C1c1c3ccccc3c(O)n1CC2", "TEST SYSTEM": "OVCAR-5 ovarian", "ASSIGNED CATEGORY": "inactive"}
{"MOLECULE": "Cc1ccc(NC(=O)Nc2c(Cl)cccc2Cl)cn1", "TEST SYSTEM": "OVCAR-5 ovarian", "ASSIGNED CATEGORY": "inactive"}
{"MOLECULE": "CC(=O)CSC(C)=O", "TEST SYSTEM": "OVCAR-5 ovarian", "ASSIGNED CATEGORY": "inactive"}
{"MOLECULE": "COc1ccc(S(=O)(=O)Nc2c(/C=C\\c3cc(OC)c(OC)c(OC)c3)ccc(OC)c2O)cc1", "TEST SYSTEM": "OVCAR-5 ovarian", "ASSIGNED CATEGORY": "inactive"}
{"MOLECULE": "O=C(Nc1ccncc1)C(=O)c1cn(S(=O)(=O)c2ccc(F)cc2)c2ccccc12", "TEST SYSTEM": "OVCAR-5 ovarian", "ASSIGNED CATEGORY": "inactive"}
{"MOLECULE": "COc1ccc(Cn2c(C(N)=O)cc3c2-c2nc(N)ncc2CCC3)cc1", "TEST SYSTEM": "OVCAR-5 ovarian", "ASSIGNED CATEGORY": "inactive"}
{"MOLECULE": "CNc1ncc(-c2ccc(C(F)(F)F)cc2)c(NC2CCCCCC2)n1", "TEST SYSTEM": "OVCAR-5 ovarian", "ASSIGNED CATEGORY": "inactive"}
{"MOLECULE": "O=C(CCCCC[P+](c1ccccc1)(c1ccccc1)c1ccccc1)NC(COC(=O)C(Cl)Cl)(COC(=O)C(Cl)Cl)COC(=O)C(Cl)Cl", "TEST SYSTEM": "OVCAR-5 ovarian", "ASSIGNED CATEGORY": "inactive"}
{"MOLECULE": "Cc1cs/c(=N\\NC(=O)c2cc(-c3cc4ccccc4o3)nn2-c2ccccc2)n1-c1ccccc1", "TEST SYSTEM": "OVCAR-5 ovarian", "ASSIGNED CATEGORY": "inactive"}
{"MOLECULE": "O=C1/C(=C\\c2ccccc2)CN(C(=O)c2ccccc2)C/C1=C\\c1ccccc1", "TEST SYSTEM": "OVCAR-5 ovarian", "ASSIGNED CATEGORY": "inactive"}
{"MOLECULE": "Cc1ccc(CC#N)cc1C", "TEST SYSTEM": "OVCAR-5 ovarian", "ASSIGNED CATEGORY": "inactive"}
